Tested on: Pseudomonas syringae pv. syringae (Pss) SM1030-14
Assay: Dose-response assay (MIC/MBC) in M9 minimal broth
Settings: Pseudomonas syringae, 48 h
measure: MIC (µM)
Give bare numbers, in µM.

COc1cc(CN(C)Cc2ccccc2)ccc1OCC(O)CN1CCCCCCC1 (centres unmarked)	100
CC1CCC(C(C)C)C(OC(=O)Cn2c[n+](CC(=O)OC3CC(C)CCC3C(C)C)c3ccccc32)C1 (centres unmarked)	12.5
CCCCCCCCCCCCCCCCn1c[n+](C)c2ccccc21	6.25
Cn1cc(CNCCCn2ccnc2)c(-c2ccc(Oc3ccccc3)cc2)n1	200

Proceeding to the next compound to report its MIC.
Specify measured MIC for `CCN1/C(=C/c2ccc3ccccc3[n+]2CC)C=Cc2ccccc21` .
6.25

Value source: patent US20260206756A1
